# System: A549
# measurement-description: Cytotoxicity against human A549 cells assessed as growth inhibition at 50 uM after 48 hrs by sulforhodamine B assay relative to control
# Type: functional
# setup-conditions: A549, 48 h, read-out: GI
Mark NOT MET for inhibition of growth at 50 µM values under 20%, and MET for everything at or above.

Some solved cases for reference:
COc1cc(/C=C/C(=O)/C=C/c2cc(OC)c(OC)c(OC)c2)ccc1OCc1cn(CCN2C(=O)C(=O)c3ccccc32)nn1 : MET
COc1ccc(/C=C/C(=O)/C=C/c2ccc(OCc3cn(CCN4C(=O)C(=O)c5ccccc54)nn3)c(OC)c2)cc1OC : NOT MET

Q. Reported inhibition of growth at 50 µM at or above 20%? `COc1cc(/C=C/C(=O)/C=C/c2cc(OC)c(OC)c(OC)c2)ccc1OCc1cn(CCN2C(=O)C(=O)c3cc(Cl)ccc32)nn1`
A. MET

Q. Reported inhibition of growth at 50 µM at or above 20%? `COc1cc(/C=C/C(=O)/C=C/c2cccc3ccccc23)ccc1OCc1cn(CCN2C(=O)C(=O)c3ccccc32)nn1`
A. NOT MET

Q. Reported inhibition of growth at 50 µM at or above 20%? `COc1cc(/C=C/C(=O)/C=C/c2ccccc2)ccc1OCc1cn(CCN2C(=O)C(=O)c3ccccc32)nn1`
A. NOT MET

Q. Reported inhibition of growth at 50 µM at or above 20%? `COc1cccc(/C=C/C(=O)/C=C/c2ccc(OCc3cn(CCN4C(=O)C(=O)c5ccccc54)nn3)c(OC)c2)c1`
A. NOT MET

Q. Reported inhibition of growth at 50 µM at or above 20%? `COc1ccc(/C=C/C(=O)/C=C/c2ccc(OCc3cn(CCN4C(=O)C(=O)c5ccccc54)nn3)c(OC)c2)cc1`
A. NOT MET

* * *

Each record here notes measured inhibition of growth at 50 µM.
# Test system: A549
# measurement-description: Cytotoxicity against human A549 cells assessed as growth inhibition at 50 uM after 48 hrs by sulforhodamine B assay relative to control
# Type: functional
# setup-conditions: A549, 48 h, read-out: GI
The answer is to be given in %; state only the numeric part.

# annotated cases, reported inhibition of growth at 50 µM shown
COc1cc(/C=C/C(=O)/C=C/c2ccccc2)ccc1OCc1cn(CCN2C(=O)C(=O)c3cc(Br)ccc32)nn1 : 11
COc1ccc(/C=C/C(=O)/C=C/c2ccc(OCc3cn(CCN4C(=O)C(=O)c5cc(Cl)ccc54)nn3)c(OC)c2)cc1OC : 17
COc1cc(/C=C/C(=O)/C=C/c2ccccc2)ccc1OCc1cn(CCN2C(=O)C(=O)c3cc(Cl)ccc32)nn1 : 21
COc1ccc(/C=C/C(=O)/C=C/c2ccc(OCc3cn(CCN4C(=O)C(=O)c5cc(Br)ccc54)nn3)c(OC)c2)cc1OC : 10

Proceeding to the next compound to report its inhibition of growth at 50 µM.
Q. Report inhibition of growth at 50 µM for `COc1cc(/C=C/C(=O)/C=C/c2cc(OC)c(OC)c(OC)c2)ccc1OCc1cn(CCN2C(=O)C(=O)c3cc(Br)ccc32)nn1` please.
A. 13

* * *

# Test system: THP-1
# measurement-description: Cytotoxicity against human THP1 cells assessed as growth inhibition at 50 uM after 48 hrs by sulforhodamine B assay relative to control
# Assay type: functional
# setup-conditions: THP-1, 48 h, read-out: GI
metric: inhibition of growth at 50 µM (%)
The answer is to be given in %; state only the numeric part.

# annotated cases, reported inhibition of growth at 50 µM shown
COc1cc(/C=C/C(=O)/C=C/c2cccs2)ccc1OCc1cn(CCN2C(=O)C(=O)c3cc(Cl)ccc32)nn1 : 38
COc1cc(/C=C/C(=O)/C=C/c2ccc(Br)cc2)ccc1OCc1cn(CCN2C(=O)C(=O)c3ccccc32)nn1 : 48
COc1ccccc1/C=C/C(=O)/C=C/c1ccc(OCc2cn(CCN3C(=O)C(=O)c4cc(Br)ccc43)nn2)c(OC)c1 : 43

Proceeding to the next compound to report its inhibition of growth at 50 µM.
Q. Report inhibition of growth at 50 µM for `COc1cc(/C=C/C(=O)/C=C/c2ccccc2)ccc1OCc1cn(CCN2C(=O)C(=O)c3ccccc32)nn1` please.
A. 66

Attribution: ChEMBL document CHEMBL3627713
